- Target or system: Lysosomal acid glucosylceramidase (Homo sapiens)
- Sequence (P04062 whole entry): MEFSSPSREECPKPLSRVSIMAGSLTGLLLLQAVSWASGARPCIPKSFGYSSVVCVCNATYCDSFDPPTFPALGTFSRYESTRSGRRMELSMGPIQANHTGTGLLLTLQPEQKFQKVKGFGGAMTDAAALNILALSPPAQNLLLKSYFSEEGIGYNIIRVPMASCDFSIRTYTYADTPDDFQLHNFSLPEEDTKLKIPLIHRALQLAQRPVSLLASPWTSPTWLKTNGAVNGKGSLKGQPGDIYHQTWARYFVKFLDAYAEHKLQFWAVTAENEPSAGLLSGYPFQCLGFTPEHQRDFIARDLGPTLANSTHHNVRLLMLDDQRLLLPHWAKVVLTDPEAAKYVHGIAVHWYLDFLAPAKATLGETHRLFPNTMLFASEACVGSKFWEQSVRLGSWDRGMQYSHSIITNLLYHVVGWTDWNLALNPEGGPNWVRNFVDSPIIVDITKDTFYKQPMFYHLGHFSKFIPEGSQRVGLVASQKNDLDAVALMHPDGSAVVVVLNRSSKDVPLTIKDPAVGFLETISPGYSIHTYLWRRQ
- Measurement protocol: Inhibition of human recombinant lysosomal GCase using 4-methylumbelliferyl-beta-D-glucopyranoside as substrate preincubated for 45 mins followed by substrate addition and measured after 30 mins by fluorescence spectrophotometric assay
pIC50: −log10 of the molar value.
Readout kind: pIC50

Look over these answered cases.
Chemical structure: O[C@@H]1[C@H](O)CN[C@H]1Cn1cc(CCCn2cc(COCC(COCc3cn(CCCc4cn(C[C@@H]5NC[C@@H](O)[C@H]5O)nn4)nn3)(COCc3cn(CCCc4cn(C[C@@H]5NC[C@@H](O)[C@H]5O)nn4)nn3)COCc3cn(CCCc4cn(C[C@@H]5NC[C@@H](O)[C@H]5O)nn4)nn3)nn2)nn1
pIC50: 3.77

Chemical structure: NC(COCc1cn(CCOCCOc2ccc(-c3cn(C[C@@H]4NC[C@@H](O)[C@H]4O)nn3)cc2)nn1)(COCc1cn(CCOCCOc2ccc(-c3cn(C[C@@H]4NC[C@@H](O)[C@H]4O)nn3)cc2)nn1)COCc1cn(CCOCCOc2ccc(-c3cn(C[C@@H]4NC[C@@H](O)[C@H]4O)nn3)cc2)nn1
pIC50: 4.42

Chemical structure: O=C(CCCCC(=O)NC(COCc1cn(CCCc2cn(C[C@@H]3NC[C@@H](O)[C@H]3O)nn2)nn1)(COCc1cn(CCCc2cn(C[C@@H]3NC[C@@H](O)[C@H]3O)nn2)nn1)COCc1cn(CCCc2cn(C[C@@H]3NC[C@@H](O)[C@H]3O)nn2)nn1)NC(COCc1cn(CCCc2cn(C[C@@H]3NC[C@@H](O)[C@H]3O)nn2)nn1)(COCc1cn(CCCc2cn(C[C@@H]3NC[C@@H](O)[C@H]3O)nn2)nn1)COCc1cn(CCCc2cn(C[C@@H]3NC[C@@H](O)[C@H]3O)nn2)nn1
pIC50: 3.48

a: COc1ccc(-c2cn(C[C@@H]3NC[C@@H](O)[C@H]3O)nn2)cc1
b: NC(COCc1cn(CCOCCOc2ccc(-c3cn(C[C@H]4NC[C@@H](O)[C@H]4O)nn3)cc2)nn1)(COCc1cn(CCOCCOc2ccc(-c3cn(C[C@H]4NC[C@@H](O)[C@H]4O)nn3)cc2)nn1)COCc1cn(CCOCCOc2ccc(-c3cn(C[C@H]4NC[C@@H](O)[C@H]4O)nn3)cc2)nn1
c: NC(COCc1cn(CCCc2cn(C[C@@H]3NC[C@@H](O)[C@H]3O)nn2)nn1)(COCc1cn(CCCc2cn(C[C@@H]3NC[C@@H](O)[C@H]3O)nn2)nn1)COCc1cn(CCCc2cn(C[C@@H]3NC[C@@H](O)[C@H]3O)nn2)nn1
d: CCCc1cn(C[C@@H]2NC[C@@H](O)[C@H]2O)nn1
Rank the items in ascending order with respect to pIC50. Arrange the labels as the request states and list them.
c, d, a, b
(c: 3.14, d: 3.61, a: 4.41, b: 5.15)

Source: ChEMBL document CHEMBL4765276
